Source: patent US20260242450A1

target or system: HIV-1 envelope proteins of the panel of 12 global reference pseudovirus strains of HIV-1 ("global panel")
result type: neutralizing activity, TZM-bl cell pseudovirus neutralization assay (breadth) (%)
Give just the numeric value; % need not be written.

binder	value
04_A06 (antibody, V domains shown) VH: SVRLDQSGTAVKKPGASVRVSCRAPDSFTVYRPRLSAYFIGEFNIHWLRQAPGQGLEWLGFVNIFRGAVKYSSRFQGRITITRDTSSETSYLDLGALKADDTATYYCAWDKNVDDNPWRLDSWGQGTLVIVSS VL: YIQVTQSPSSLSASIGDTITVACEVSQDVGWAVNWYHQRPGRPPYNLIYTAHNLAPGVASRFRGSRVGTYFTLTINNLLPEDVGTYYCQVFDSFAPGGTRVDLR	100
01_D03 (antibody, V domains shown) VH: HVQLWQSGAEVKKPGASVKISCSAWGFGTTSGYSFRDYRVHWVRHIAGQGFQWMGHMQPRYGAVNYARQFQGRITMTREVSFDASGGTAYMELRSLRSDDTAVYYCVTHKLYDGEDASDLTWRLDPWGQGTRVIVSS VL: GVHLTQSPASLSASVGDRVTFTCQASQDITNAINWYQLRPGKTPKLMIHDGSTLRRGVPSRFAGSGFGTKFTFTIDNLQPEDLATYFCQHYEFFPPVGTQVELN	100
05_C07 (antibody, V domains shown) VH: HVQLWQSGAEVKKPGASVKISCSAWGFGTRSGYTFRDYRIHWVRQVPRQGFEWMGHLHPAYGAVNYARQFQGRIIMTREVSFDGSGGTVYMELRSLRSDDTATYYCVTHKLYDGEDASDLTWRLDPWGQGTRVTVSS VL: GVSLTQSPASLCASVGDRVTFTCQASQDITNAINWYQLRPGKTPKLMIHDGSTLRRGVPSRFAGSGFGTRFTFTIDNLQPEDLATYFCQHYEFFPPAGTQVDFN	100

Would you kindly share the measured neutralizing activity, TZM-bl cell pseudovirus neutralization assay (breadth) for 01_B01 (antibody, V domains shown) VH: HVQLWQSGAEVKKPGASVKISCAAWGFGTTSGYSFRDYRIHWVRQVPGQGFQWMGHIQPRYGAVNYAHQFQGRITMTREVSFDASGGTAYMELRSLRSDDTATYYCVTHKLYDGEDASDLAWRLDPWGQGTRVTVSS VL: GVHLTQSPASLSASVGDRVTFTCQASQDITNAINWYQLRPGKTPKLMIHDGSTLRRGVPSRFAGGGFGTKFTFTIDNLQPEDLATYFCQHYEFFPPAGTQVELN ?
100
